measured-quantity: melting point

{"compound": "CC(C)(C)OC(=O)NCc1ccc(C(=O)N2Cc3ccc(C(=O)NCc4cccnc4)n3Cc3ccccc32)cc1", "measured-quantity": "melting point", "observed-measurement": "171 °C"}
{"compound": "CC(O)c1ccccc1-c1ccc(C(=O)N2Cc3ccc(C(=O)NCc4ccc[n+]([O-])c4)n3Cc3ccccc32)cc1 (stereo not shown)", "measured-quantity": "melting point", "observed-measurement": "213 to 215 °C"}
{"compound": "O=C(NCc1cccnc1)c1ccc2n1Cc1ccccc1N(C(=O)c1ccccc1)C2", "measured-quantity": "melting point", "observed-measurement": "197 °C"}
{"compound": "Cc1ncc(CNC(=O)c2ccc3n2Cc2ccccc2N(C(=O)CSc2ccc(Br)cc2)C3)c(CO)c1O", "measured-quantity": "melting point", "observed-measurement": "199 to 200 °C"}
{"compound": "O=Cc1ccccc1-c1ccc(C(=O)N2Cc3ccc(C(=O)NCc4cccnc4)n3Cc3ccccc32)cc1", "measured-quantity": "melting point", "observed-measurement": "162 to 163 °C"}
{"compound": "COc1ccc(C(=O)N2Cc3ccc(C(=O)NCc4cccnc4)n3Cc3ccccc32)cc1", "measured-quantity": "melting point", "observed-measurement": "110 to 112 °C"}
{"compound": "NS(=O)(=O)c1ccccc1-c1ccc(C(=O)N2Cc3ccc(C(=O)NCc4cccnc4)n3Cc3ccccc32)cc1", "measured-quantity": "melting point", "observed-measurement": "153 to 156 °C"}

----------
# assayed-system: human FSH receptor (Homo sapiens, UniProt P23945)
# Construct: host or cells: CHO-K1 (CHO FSH-R 6CRE-Luc, 1D7 cells)
# Sequence (P23945 18-695): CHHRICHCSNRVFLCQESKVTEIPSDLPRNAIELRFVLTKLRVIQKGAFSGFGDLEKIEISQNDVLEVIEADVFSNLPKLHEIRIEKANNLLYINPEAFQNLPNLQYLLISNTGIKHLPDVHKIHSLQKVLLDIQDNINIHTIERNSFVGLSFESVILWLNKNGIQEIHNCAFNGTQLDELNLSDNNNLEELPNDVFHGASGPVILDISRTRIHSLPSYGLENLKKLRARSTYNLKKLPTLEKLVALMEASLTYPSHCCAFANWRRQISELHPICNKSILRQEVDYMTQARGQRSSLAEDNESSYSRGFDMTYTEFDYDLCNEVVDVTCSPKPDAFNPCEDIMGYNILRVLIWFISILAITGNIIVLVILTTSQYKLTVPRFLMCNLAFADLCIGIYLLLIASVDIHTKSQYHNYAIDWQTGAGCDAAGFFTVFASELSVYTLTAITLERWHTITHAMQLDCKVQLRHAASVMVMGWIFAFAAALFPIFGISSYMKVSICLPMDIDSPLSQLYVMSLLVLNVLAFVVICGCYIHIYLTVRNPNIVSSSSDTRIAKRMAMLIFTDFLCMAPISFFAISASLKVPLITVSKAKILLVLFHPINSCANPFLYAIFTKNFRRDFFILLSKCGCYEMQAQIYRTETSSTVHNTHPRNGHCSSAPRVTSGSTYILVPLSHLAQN
# protocol-description: FSH receptor-dependent CRE-luciferase reporter gene assay (CHO FSH-R 6CRE-Luc cells)
# Type: cell-based
# settings: 2-dose format; test concentration in parentheses = 30 μM; percent inhibition of response to EC50 of FSH; read-out: CRE % inhibition

{"molecule-smiles": "O=C(NCc1cccnc1)c1ccc2n1Cc1ccccc1N(C(=O)c1cnccn1)C2", "inhibition at 30 µM": "41%"}
{"molecule-smiles": "CN(Cc1ccccc1)c1ccc(C(=O)N2Cc3ccc(C(=O)NCc4cccnc4)n3Cc3ccccc32)cn1", "inhibition at 30 µM": "26%"}
{"molecule-smiles": "O=C(NCc1cccnc1)c1ccc2n1Cc1ccccc1N(C(=O)/C=C/c1ccccc1)C2", "inhibition at 30 µM": "35%"}

----------
Reported melting point values for a set of molecules

{"molecule-smiles": "O=C(NCc1cccnc1)c1ccc2n1Cc1ccccc1N(C(=O)c1ccc(-c3ccccc3CN3CCCCC3)cc1)C2", "melting point": "199 to 202 °C"}
{"molecule-smiles": "NCc1ccccc1-c1ccc(C(=O)N2Cc3ccc(C(=O)NCc4cccnc4)n3Cc3ccccc32)cc1", "melting point": "115 to 120 °C"}
{"molecule-smiles": "COc1cc(C(=O)N2Cc3ccc(C(=O)NCc4cccnc4)n3Cc3ccccc32)ccc1-c1ccccc1C", "melting point": "165 to 167 °C"}
{"molecule-smiles": "O=C(NCc1cccnc1)c1ccc2n1Cc1ccccc1N(C(=O)c1cccc3ccccc13)C2", "melting point": "188 °C"}
{"molecule-smiles": "COc1ccccc1-c1ccc(C(=O)N2Cc3ccc(C(=O)NCc4cccnc4)n3Cc3ccccc32)cc1C", "melting point": "119 to 124 °C"}
{"molecule-smiles": "O=C(NCc1cccnc1)c1ccc2n1Cc1ccccc1N(C(=O)c1ccc(Cl)c(Cl)c1)C2", "melting point": "192 °C"}
{"molecule-smiles": "O=C(NCc1cccnc1)c1ccc2n1Cc1ccccc1N(C(=O)c1ccc(-c3ccccn3)cc1)C2", "melting point": "159 to 161 °C"}
{"molecule-smiles": "CCOc1ccccc1-c1ccc(C(=O)N2Cc3ccc(C(=O)NCc4cccnc4)n3Cc3ccccc32)cc1C", "melting point": "139 to 143 °C"}
{"molecule-smiles": "O=C(NCc1cccnc1)c1ccc2n1Cc1ccccc1N(C(=O)c1ccccc1F)C2", "melting point": "142 to 143 °C"}
{"molecule-smiles": "O=C(NCc1cccnc1)c1ccc2n1Cc1ccccc1N(C(=O)c1ccccc1C(F)(F)F)C2", "melting point": "157 to 158 °C"}
{"molecule-smiles": "Cc1cc(C(=O)N2Cc3ccc(C(=O)NCc4cccnc4)n3Cc3ccccc32)ccc1I", "melting point": "176 to 177 °C"}
{"molecule-smiles": "Cc1cccnc1-c1ccc(C(=O)N2Cc3ccc(C(=O)NCc4cccnc4)n3Cc3ccccc32)cc1", "melting point": "150 to 151 °C"}
{"molecule-smiles": "O=C(c1ccccc1)c1ccccc1-c1ccc(C(=O)N2Cc3ccc(C(=O)NCc4cccnc4)n3Cc3ccccc32)cc1", "melting point": "198 to 199 °C"}
{"molecule-smiles": "O=C(NCc1cccnc1)c1ccc2n1Cc1ccccc1N(C(=O)c1ccc(F)cc1)C2", "melting point": "171 to 173 °C"}
{"molecule-smiles": "COCc1ccccc1-c1ccc(C(=O)N2Cc3ccc(C(=O)NCc4cccnc4)n3Cc3ccccc32)cc1", "melting point": "156 to 157 °C"}
{"molecule-smiles": "O=C(NCc1cccnc1)c1ccc2n1Cc1ccccc1N(C(=O)COc1ccc(Cl)cc1)C2", "melting point": "169 to 171 °C"}
